Organism: Rattus norvegicus
assay-procedure: Spasmolytic activity in Wistar rat ileum
Assay type: functional
Hi all, reminder that labels come from Emax, split as 1: < 50%; 2: ≥ 50% and < 60%; 3: ≥ 60%

The following compounds have reported results that may help.
COc1ccc(-c2nc3ccccc3[nH]2)cc1OC
2
Clc1ccc(COc2ccccc2-c2nc3ccccc3[nH]2)cc1
1
COc1cc(OC)c(-c2nc3ccccc3[nH]2)cc1OC
3
O=[N+]([O-])c1ccccc1-c1nc2ccccc2[nH]1
1
COc1ccc(-c2nc3ccccc3[nH]2)cc1
2

// query Tag the class for CCCOc1ccccc1-c1nc2ccccc2[nH]1
// result 3

// query Tag the class for COc1cc(-c2nc3ccccc3[nH]2)ccc1O
// result 3

// query Tag the class for COc1ccccc1-c1nc2ccccc2[nH]1
// result 2

// query Tag the class for COc1ccc(Cc2nccc3cc(OC)c(OC)cc23)cc1OC
// result 3
